assaySystem: C/EBPα bZIP (human, UniProt P49715 281-340)
Sequence (P49715 281-340): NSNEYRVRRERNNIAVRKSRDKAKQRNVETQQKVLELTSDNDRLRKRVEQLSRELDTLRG
assaySummary: ITC; ITC: 20 mM Tris pH 7.5, 150 mM NaCl, 25 °C; EMSA: same buffer, 4 °C, 6% native gel in 0.5x TBE
testContext: protein: recombinant; tags: His6-SUMO removed by TEV; chain copies: 2; blunt
pKd: −log10 of the molar value.
Entries and their pKd

{"columns": ["binder", "pKd"],
 "data": [
  ["TTGCGCAA (dsDNA) DNA 1: CATTGCGCAATG DNA 2: CATTGCGCAATG", 6.32],
  ["TTACGTAA (dsDNA) DNA 1: CATTACGTAATG DNA 2: CATTACGTAATG", 6.46]
]}
